test_target: AR W741C (Homo sapiens, UniProt P10275, W742C)
Construct: expressed in transfected cells; host or cells: HepG2
test_method_notes: Luciferase transcriptional reporter assay, mutant AR, HepG2, antagonist mode
Type: cell-based
study_conditions: HepG2, 90 pM R1881, 48 hours; * denotes incomplete inhibition (otherwise 100%); read-out: Antagonism; IC50, AR construct W741C
Method: HepG2 cells were maintained in EMEM supplemented with 10% FBS. One day before transfection, the media was changed to EMEM with 10% CSS. […] Cells were then trypsinized, counted and resuspended at 500,000 cells/mL. […] The plates were then assayed using SteadyGlo and read on the Envision. Percent Stimulation and Inhibition is determined and analyzed using GraphPad Prism. All values are calculated relative to the activity of R1881 induced androgen receptor activity (n≧3).
property_label: pIC50
The scale used: pIC50 is minus the common logarithm of the concentration in molar units.

Lab note: N#Cc1ncc(N2C(=O)C3(CCC3)N(c3ccc(OC4CCNCC4)cc3)C2=S)cc1C(F)(F)F [Cpd 35] gave pIC50 of 5.24

----------
test_target: wild-type Androgen Receptor (AR-wt) (Homo sapiens, UniProt P10275)
Construct: expressed in transfected cells; host or cells: LNCaP (LNCaP AR (cs))
Sequence (P10275 1-920): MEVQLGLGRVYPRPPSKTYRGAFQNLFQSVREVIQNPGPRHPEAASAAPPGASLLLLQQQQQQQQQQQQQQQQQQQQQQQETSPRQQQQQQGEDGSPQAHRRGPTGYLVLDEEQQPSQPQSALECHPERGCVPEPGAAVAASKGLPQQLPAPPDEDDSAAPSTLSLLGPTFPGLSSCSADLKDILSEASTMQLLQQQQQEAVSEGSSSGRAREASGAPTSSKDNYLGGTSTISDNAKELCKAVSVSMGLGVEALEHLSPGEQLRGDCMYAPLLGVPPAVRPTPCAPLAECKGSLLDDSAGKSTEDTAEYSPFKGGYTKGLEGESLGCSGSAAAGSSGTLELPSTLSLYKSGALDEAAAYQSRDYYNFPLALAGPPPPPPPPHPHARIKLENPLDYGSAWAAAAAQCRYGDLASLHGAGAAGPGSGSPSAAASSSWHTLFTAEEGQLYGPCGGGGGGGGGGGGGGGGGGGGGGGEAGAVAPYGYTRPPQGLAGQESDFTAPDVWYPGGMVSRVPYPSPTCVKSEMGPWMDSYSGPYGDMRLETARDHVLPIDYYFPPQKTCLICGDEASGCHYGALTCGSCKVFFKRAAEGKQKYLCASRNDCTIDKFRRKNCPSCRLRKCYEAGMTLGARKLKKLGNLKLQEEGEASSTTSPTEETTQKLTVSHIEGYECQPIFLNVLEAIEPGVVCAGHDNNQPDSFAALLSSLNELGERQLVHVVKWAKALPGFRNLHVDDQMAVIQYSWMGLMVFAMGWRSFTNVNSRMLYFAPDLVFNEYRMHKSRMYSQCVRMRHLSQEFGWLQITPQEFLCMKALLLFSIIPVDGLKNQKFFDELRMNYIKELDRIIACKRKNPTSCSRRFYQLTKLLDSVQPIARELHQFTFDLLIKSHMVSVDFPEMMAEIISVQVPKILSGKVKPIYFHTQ
test_method_notes: LNCaP-AR-wt AG reporter assay (ARE firefly luciferase, agonist mode)
Assay type: cell-based
study_conditions: read-out: LNCaP-AR-wt AG MAX % Stim
property_label: Emax (%)
Report as a plain number; the unit % is understood.

Form: molecule = N#Cc1ncc(N2C(=O)C3(CCC3)N(c3ccc(Oc4ccccn4)cc3)C2=S)cc1C(F)(F)F ; Emax = 4

So, Cc1ccc(-c2ccc(N3C(=S)N(c4cnc(C#N)c(C)c4)C(=O)C34CCC4)cc2)o1 ? Its Emax was 0.7

response.value for N#Cc1ncc(N2C(=O)C3(CCC3)N(c3cccc(OC(F)(F)F)c3)C2=S)cc1C(F)(F)F (field: Emax) = 0.7

Sure, the documented Emax for Cc1ccc(NC(=O)c2ccc(N3C(=S)N(c4cnc(C#N)c(C)c4)C(=O)C34CCC4)cc2F)cn1 is 0.8

The reported Emax of the molecule N#Cc1ncc(N2C(=O)C3(CCC3)N(c3ccc(C(=O)NCCCN4CCOCC4)c(F)c3)C2=S)cc1C(F)(F)F was 0.3

// recorded Emax for N#Cc1ncc(N2C(=O)C3(CCC3)N(c3ccc(OCCCN4CCCC4)c(F)c3)C2=S)cc1C(F)(F)F : 0.7

Documented Emax of N#Cc1ncc(N2C(=O)C3(CCC3)N(c3ccc(C(=O)NCc4cccs4)c(F)c3)C2=S)cc1C(F)(F)F : 1.5

// field: Emax; key: N#Cc1ncc(N2C(=O)C3(CCC3)N(c3ccccc3)C2=S)cc1C(F)(F)F ; value = 0.3

Query CC(C)(O)CNC(=O)c1ccc(N2C(=S)N(c3cnc(C#N)c(C(F)(F)F)c3)C(=O)C23CCC3)cc1F yields Emax of -0.1

The molecule CCCNC(=O)c1ccc(N2C(=S)N(c3cnc(C#N)c(C(F)(F)F)c3)C(=O)C23CCC3)cc1F showed Emax equal to 0.2

----------
test_target: wild-type Androgen Receptor (AR-wt) (Homo sapiens, UniProt P10275)
Construct: expressed in transfected cells; host or cells: LNCaP (LNCaP AR (cs))
Sequence (P10275 1-920): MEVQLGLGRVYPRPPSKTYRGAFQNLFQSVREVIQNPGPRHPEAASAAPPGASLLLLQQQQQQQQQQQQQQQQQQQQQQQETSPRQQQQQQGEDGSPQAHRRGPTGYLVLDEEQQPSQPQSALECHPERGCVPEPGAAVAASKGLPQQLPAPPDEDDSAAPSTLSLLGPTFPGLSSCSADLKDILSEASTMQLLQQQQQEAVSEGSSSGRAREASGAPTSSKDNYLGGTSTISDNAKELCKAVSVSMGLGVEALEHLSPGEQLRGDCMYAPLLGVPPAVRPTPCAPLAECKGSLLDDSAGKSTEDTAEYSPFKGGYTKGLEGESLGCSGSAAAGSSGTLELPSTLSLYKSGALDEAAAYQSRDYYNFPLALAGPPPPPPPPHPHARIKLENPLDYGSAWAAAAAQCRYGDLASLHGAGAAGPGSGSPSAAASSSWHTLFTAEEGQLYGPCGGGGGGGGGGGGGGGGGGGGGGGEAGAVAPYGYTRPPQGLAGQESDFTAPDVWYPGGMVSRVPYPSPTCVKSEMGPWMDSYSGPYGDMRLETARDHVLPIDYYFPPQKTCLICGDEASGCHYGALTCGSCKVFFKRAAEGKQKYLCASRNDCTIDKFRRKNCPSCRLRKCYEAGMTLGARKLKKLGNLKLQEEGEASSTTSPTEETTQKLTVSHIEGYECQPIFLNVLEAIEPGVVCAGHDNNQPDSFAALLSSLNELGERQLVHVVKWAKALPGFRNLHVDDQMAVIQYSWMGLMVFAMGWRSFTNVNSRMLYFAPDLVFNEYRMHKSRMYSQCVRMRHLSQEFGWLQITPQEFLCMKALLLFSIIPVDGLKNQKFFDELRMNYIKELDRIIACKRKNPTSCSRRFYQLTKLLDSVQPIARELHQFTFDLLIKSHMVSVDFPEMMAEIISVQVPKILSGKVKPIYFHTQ
test_method_notes: LNCaP-AR-wt ANT reporter assay (ARE firefly luciferase, antagonist mode)
Assay type: cell-based
study_conditions: maximum % inhibition of R1881 control response over tested concentration range; read-out: LNCaP-AR-wt ANT MAX % Inh
Kindly supply the reported Emax values for the records listed here.
Kindly provide the numeric value in % only, without the unit symbol.

Memo: N#Cc1ncc(N2C(=O)C3(CCC3)N(c3ccc(C(=O)NCc4cccc(Cl)c4)c(F)c3)C2=S)cc1C(F)(F)F , reported Emax: 96.1

Per the records, this compound ( Cc1cc(N2C(=O)C3(CCC3)N(c3ccc(OC4CCSCC4)cc3)C2=S)cnc1C#N ) has Emax equal to 102

compound Cc1cc(N2C(=O)C3(CCC3)N(c3ccc(O)cc3)C2=S)cnc1C#N , Emax observed: 96.3

// N#Cc1cccc(N2C(=S)N(c3cnc(C#N)c(C(F)(F)F)c3)C(=O)C23CCC3)c1 : Emax value = 101

Measured Emax of CNC(=O)c1ccc(N2C(=S)N(c3cnc(C#N)c(C)c3)C(=O)C23CCC3)cc1F : 99.2

# Emax of Cc1cc(N2C(=O)C3(CCC3)N(c3ccc(C(=O)Nc4ccc(F)cc4)c(F)c3)C2=S)cnc1C#N = 87.8

// Emax value for N#Cc1ncc(N2C(=O)C3(CCC3)N(c3ccc(OCCN4CCCC4)c(F)c3)C2=S)cc1C(F)(F)F : 98.9

----------
test_target: F876L mutant Androgen Receptor (AR-F876L) (Homo sapiens, UniProt P10275, F877L)
Construct: expressed in transfected cells; host or cells: LNCaP (LNCaP F876L)
Sequence (P10275 1-920 F877L): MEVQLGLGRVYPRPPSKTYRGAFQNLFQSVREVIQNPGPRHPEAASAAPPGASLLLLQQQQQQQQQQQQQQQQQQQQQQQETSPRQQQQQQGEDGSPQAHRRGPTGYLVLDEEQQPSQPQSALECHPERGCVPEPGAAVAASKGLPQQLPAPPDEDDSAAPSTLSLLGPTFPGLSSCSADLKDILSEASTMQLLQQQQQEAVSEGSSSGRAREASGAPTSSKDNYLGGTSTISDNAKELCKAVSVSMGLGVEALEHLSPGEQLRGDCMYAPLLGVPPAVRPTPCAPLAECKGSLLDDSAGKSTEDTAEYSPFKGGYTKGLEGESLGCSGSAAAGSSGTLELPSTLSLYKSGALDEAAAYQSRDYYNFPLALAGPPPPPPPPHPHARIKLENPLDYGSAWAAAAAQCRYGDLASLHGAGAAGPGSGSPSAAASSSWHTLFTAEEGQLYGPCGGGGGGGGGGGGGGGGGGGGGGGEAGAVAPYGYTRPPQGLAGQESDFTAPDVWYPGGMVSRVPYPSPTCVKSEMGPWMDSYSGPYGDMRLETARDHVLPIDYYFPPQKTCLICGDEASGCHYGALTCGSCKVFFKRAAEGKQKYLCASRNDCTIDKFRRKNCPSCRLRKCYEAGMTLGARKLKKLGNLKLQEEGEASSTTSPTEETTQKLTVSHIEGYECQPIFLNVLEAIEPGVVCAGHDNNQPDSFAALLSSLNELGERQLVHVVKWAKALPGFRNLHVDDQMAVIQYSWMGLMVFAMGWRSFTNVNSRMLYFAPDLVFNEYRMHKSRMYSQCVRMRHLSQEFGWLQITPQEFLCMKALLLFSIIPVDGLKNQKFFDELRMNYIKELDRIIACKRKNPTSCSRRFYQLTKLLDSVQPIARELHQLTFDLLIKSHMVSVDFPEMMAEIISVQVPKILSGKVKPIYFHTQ
test_method_notes: LNCaP-AR-F876L ANT reporter assay (ARE firefly luciferase, antagonist mode)
Format: cell-based
study_conditions: read-out: LNCaP-AR-F876L ANT MAX % Inh
property_label: Emax (%)
Express the result in % but write the number alone.

Query CN1CCN(CCCc2ccc(N3C(=S)N(c4cnc(C#N)c(C(F)(F)F)c4)C(=O)C34CCC4)cc2)CC1 yields Emax of 98.9

Briefly, Emax measured for N#Cc1ncc(N2C(=O)C3(CCC3)N(c3ccc4ccccc4c3)C2=S)cc1C(F)(F)F : 101

// Emax lookup, compound = Cc1cc(N2C(=O)C3(CCC3)N(c3ccc(-c4cncnc4)cc3)C2=S)cnc1C#N , result: 100

Quick note, Emax for CCCNC(=O)c1ccc(N2C(=S)N(c3cnc(C#N)c(C(F)(F)F)c3)C(=O)C23CCC3)cc1F landed at 98
